The values you see were collected from patent US6914045B2.

Would you kindly list MIC Streptococcus pyogenes (GC 4563) for each of these compounds?
Tested on: Streptococcus sp.
Test: in vitro antibacterial evaluation, MIC by broth dilution
Assay type: cell-based
Conditions: broth dilution, inoculum 5×10^5 CFU/mL, 18 hours at 35° C.; strain GC 4563

Query: MIC Streptococcus pyogenes (GC 4563); subject: COc1ccc2cc(COC3C(OC4C(CO)OC(Oc5ccc(CC6NC(=O)C(C(C)c7ccccc7)NC(=O)CNC(=O)C(CO)NC(=O)C(CC7CNC(=N)N7C7OC(CO)C(O)C(O)C7O)NC(=O)C(CC7CNC(=N)N7)NC6=O)cc5)C(O)C4O)OC(CO)C(O)C3O)ccc2c1 (stereo not shown) [Example 245c]
128 µg/mL

Query: MIC Streptococcus pyogenes (GC 4563); subject: N=C1NCC(C(O)C2NC(=O)C(CC3CCC(OC4OC(CO)C(OC5OC6COC7(OC6C(O)C5O)C5CC6CC(C5)CC7C6)C(O)C4O)CC3)NC(=O)C(CC3CCCCC3)NC(=O)CNC(=O)C(CO)NC(=O)C(C(O)C3CNC(=N)N3C3OC(CO)C(O)C(O)C3O)NC2=O)N1 (single isomer, unassigned)
64 µg/mL

Query: MIC Streptococcus pyogenes (GC 4563); subject: COc1ccc(COCC2OC(OC3C(CO)OC(Oc4ccc(CC5NC(=O)C(C(C)c6ccccc6)NC(=O)CNC(=O)C(CO)NC(=O)C(C(O)C6CNC(=N)N6C6OC(CO)C(O)C(O)C6O)NC(=O)C(C(O)C6CNC(=N)N6)NC5=O)cc4)C(O)C3O)C(O)C(O)C2O)cc1F (stereo not shown)
1 µg/mL

Query: MIC Streptococcus pyogenes (GC 4563); subject: CC(C1CCCCC1)C1NC(=O)CNC(=O)C(CO)NC(=O)C(C(O)C2CNC(=N)N2C2OC(CO)C(O)C(O)C2O)NC(=O)C(C(O)C2CNC(=N)N2)NC(=O)C(Cc2ccc(OC3OC(CO)C(OC4OC5COC6(OC5C(O)C4O)C4CC5CC(C4)CC6C5)C(O)C3O)cc2)NC1=O (stereo not shown)
<0.12 µg/mL

Query: MIC Streptococcus pyogenes (GC 4563); subject: CC(c1ccccc1)C1NC(=O)CNC(=O)C(CO)NC(=O)C(C(O)C2CNC(=N)N2C2OC(CO)C(O)C(O)C2O)NC(=O)C(C(O)C2CNC(=N)N2)NC(=O)C(Cc2ccc(OC3OC(CO)C(OC4OC5COC(c6ccccc6)OC5C(O)C4O)C(O)C3O)c(I)c2)NC1=O (stereo not shown)
32 µg/mL

Query: MIC Streptococcus pyogenes (GC 4563); subject: CC(c1ccccc1)C1NC(=O)CNC(=O)C(CO)NC(=O)C(C(O)C2CNC(=N)N2C2OC(CO)C(O)C(O)C2O)NC(=O)C(C(O)C2CNC(=N)N2)NC(=O)C(Cc2ccc(OC3OC(CO)C(OC4OC5COC6(CCCCCCCCCCCC6)OC5C(O)C4O)C(O)C3O)cc2)NC1=O (stereo not shown)
2 µg/mL

Query: MIC Streptococcus pyogenes (GC 4563); subject: COc1ccc(COCC2OC(OC3C(CO)OC(Oc4ccc(CC5NC(=O)C(C(C)c6ccccc6)NC(=O)CNC(=O)C(CO)NC(=O)C(C(O)C6CNC(=N)N6C6OC(CO)C(O)C(O)C6O)NC(=O)C(C(O)C6CNC(=N)N6)NC5=O)cc4)C(O)C3O)C(O)C(O)C2O)cc1 (stereo not shown)
2 µg/mL
